Values compiled from the nanobody polyreactivity screen of Harvey et al. (2022).

# Protocol Details: yeast display, Sf9 membrane polyspecificity reagent, FACS + sequencing; frameworks hold sequencing errors
Property Measured: polyreactivity (PSR sort gate)

[
  {
    "Chain Sequence": "QVQLVESGGGLVQAGGSLRLSCAASGSNFGFYAMGWYRQAPGKERELVAAIDSGDSTNYADSVKGRFTISRDNAKNTVYLQMNSLKPEDTAVYYCNAEAWWYFWFDYWGQGTQVTVSS",
    "Property Measured": "polyreactivity (PSR sort gate)",
    "Observed Measurement": "low polyreactivity"
  },
  {
    "Chain Sequence": "QVQLVESGGGLVQAGGSLRLSCAASGYTLVGYAMGWYRQAPGKEMELVAVISGSGGSTRYADSVKGRFTISRDNAKYTVYLQMNSLNPEDTAVYYCAARQPRTQAVYEGYYWGQGTQVTVSS",
    "Property Measured": "polyreactivity (PSR sort gate)",
    "Observed Measurement": "high polyreactivity"
  },
  {
    "Chain Sequence": "QVQLVESGGGFVQAGGSLRLSCAASGLTLFRYAMGWYSQAPGKEREFVAAISPSGDRTYYADSVKGRFTISRDNAKNTVDLQMNSLKPEDTAVYYCNAWRYDYWGQGTQVTVSS",
    "Property Measured": "polyreactivity (PSR sort gate)",
    "Observed Measurement": "high polyreactivity"
  },
  {
    "Chain Sequence": "QDQLVESGGGLVQAGGSLRLSCAASGSIIGWYAMGWYRQARGKERELVAAITFSSVSTYYADSVKGRFTISRDNAKNTVYLQMNSLKPEDTAVYYCAAVVYYTFDYCGQGTQVTVSS",
    "Property Measured": "polyreactivity (PSR sort gate)",
    "Observed Measurement": "low polyreactivity"
  }
]

In the following, a different sequence is considered.
Lookup: Which polyreactivity (PSR sort gate) value is on record for `QVQLVESGGGLVQAGGSLRLSCAASVFISSWYDMGWYRQAPGKERQLVAAIRSSGGNTYYADSVKGRFTISRDNAKNTVYLQMNSLKPEDTAVYYCAKDWKSEDGGYYWGQGTQVTVSS` ?
Found: high polyreactivity

----------
# Protocol Details: yeast display, Sf9 membrane polyspecificity reagent, FACS + sequencing; frameworks hold sequencing errors
Property Measured: polyreactivity (PSR sort gate)

Before answering, review these 10 worked examples.
[
  {
    "Chain Sequence": "QVQLQESGGGLVQAGGSLRLSCAASCTISQEDWMGSYRQAPGKEREFVAAIGLGSNTNYADSLKGRFTISRDNAKNTVYLQMNSLKPEDTAVYYCAVSVWQYSDHVYRGQGTQVTVSS",
    "polyreactivity (PSR sort gate)": "low polyreactivity"
  },
  {
    "Chain Sequence": "QVQLVESGGGLVQARGSLRLSCAASGSIFYRNAMGWYRQAPGKETELVARIDRGGITHYADSVKGRFTISRDNAMNTVYLQMNSLKPEDTAVYYCAARKGYWYPTGHGARRYDYWGQGTQVTVSS",
    "polyreactivity (PSR sort gate)": "high polyreactivity"
  },
  {
    "Chain Sequence": "QVQLVESGGRLVQAGGSLRLSCAASGRIFGAYAMGWYRQAPGKERELVAAINSGGSTFYADSVKGRFTISRDNAKNTVYLQMNRLKPEDTAVYYCAKRSYDYRRYSWGQGTQVTVSS",
    "polyreactivity (PSR sort gate)": "high polyreactivity"
  },
  {
    "Chain Sequence": "QVQLVESGGGLVQAGGSLRLSCAASGSIFKYYAMGWYRQAPGKERELVAAISRSGSNTYYADSVKGRFTISRDNPKNTVYLQMNSLKPEDTAVYYCAAVKGPERPTSPYDYWGQGTQVTVSS",
    "polyreactivity (PSR sort gate)": "high polyreactivity"
  },
  {
    "Chain Sequence": "QVQLVESGGGLVQAGGSLRLSCAASGSTFYTYAMGWYRQAPGKERELVAAISWRTGSTYYADSVKGRFTISRDNAKNTVYLQMNSLKPEDTAVYYCATDYYIDTWDWYEEYEYWGQGTQVTVSS",
    "polyreactivity (PSR sort gate)": "high polyreactivity"
  },
  {
    "Chain Sequence": "QVQLVESGGGLVQAGGRLRLSCAASGSTSVYYARGWYRQAPGKERELVAGITSGGNTNYADSVKGRFTISRDNAKNTVYFQMISLNPEDTSVYYCNAVYIVTVGWIRLGSYYYWGQGTQVTVSS",
    "polyreactivity (PSR sort gate)": "low polyreactivity"
  },
  {
    "Chain Sequence": "QVQHVESGGGLVQAGGSLRLSCAASGSTFYRYTMGWYRQPPGKEREFVATITGRGGSTYADSVKGRFTISRDNAKNTVYLQMNSLKPEDTAVYYCAKRQTYREYDYWGQGTQVTVSS",
    "polyreactivity (PSR sort gate)": "low polyreactivity"
  },
  {
    "Chain Sequence": "QVQLVESGGGLVQAGGSLRLSCAASGRTFYVYAMGWYRHAPGKERELVASIRRSGGITYYADSVKGRFTISRDNAKNTVYLQMNSLKPEDTAVYYCNARRGPGRREYDYWGQGTQVTLSS",
    "polyreactivity (PSR sort gate)": "high polyreactivity"
  },
  {
    "Chain Sequence": "QVQLVESGGGLVQAGGSLRLSCAASGLIFRWYAMGWYRQAPGKEWELVAAISRRGGTTNYADSVKGRFTISRDNAKKTVYLQMNSLKPEDTAVYYCAADYQSVGGAEYDYWGQGTQVTVSS",
    "polyreactivity (PSR sort gate)": "high polyreactivity"
  },
  {
    "Chain Sequence": "QVQLEESGGGLVQAGGSLRLSCAASGLTFSRYAMGSYRQATGKERELVAAISIRGGNTYYADSVKGRFTISRDNAKNTVYLQMNSLKPEDTAVYYCNAVVYHYTLDHEYDYWGQGTQVTVSS",
    "polyreactivity (PSR sort gate)": "high polyreactivity"
  }
]

In the following, a different sequence is considered.
Lookup: Which polyreactivity (PSR sort gate) value is on record for `QVQLVESGGGLVQAGGSLRLSCAASGFTFLYNAMGWSRQAPGKERELVASINSGGSTNYADSVKGRFTISRDNAKNTVYLQMNSLKPEDTAVYYFNAKRHVRKGDYWGQGTQVTVSS` ?
Found: low polyreactivity

----------
# Protocol Details: yeast display, Sf9 membrane polyspecificity reagent, FACS + sequencing; frameworks hold sequencing errors
Property Measured: polyreactivity (PSR sort gate)

Before answering, review these 4 worked examples.
[
  {
    "Chain Sequence": "QVHLVESGGGLVQAGGSLRLTCAASGFTYPGNAMGWYRQAPGKERELVATINWSGTSTYYADSVKGRFTISRDYAKNTVYLQMNSLKPEDTAVYYCAVDTGGPGYRFDYWGQGTQVTVSS",
    "polyreactivity (PSR sort gate)": "high polyreactivity"
  },
  {
    "Chain Sequence": "QVQLGESGGVLVQAGGSLRLICAACGSTFSYYTMGWYRKAPGKEREVVAVIYTSGGNTYYADSVKGRFTISRDNAKNTVYLQMNSLKPEDTAVYYCAARWYGRGRYEYWGQGTQVTVSS",
    "polyreactivity (PSR sort gate)": "high polyreactivity"
  },
  {
    "Chain Sequence": "QVQLVESGGGLVQAGGSLRLSCAASGLIFGSNAMGWYRQAPGKERELVAAISSGGTTKYADSVKGRFTISRDNAKNTVYLQMNSLKPEDTAVYYCAAQDYSYTTRFQDDYWGQGTQVTVSS",
    "polyreactivity (PSR sort gate)": "low polyreactivity"
  },
  {
    "Chain Sequence": "QVQLVESGGGLVQAGGSLRLSCAASGSIFYRYAMGWYRQAPGKERELVAGISWTGGTYYADSVKGRFTISRDNAKNTVYLQMNSLKPEDTAVYYCAATIWIAYRGWYSDYNYWGQGTQVTVSS",
    "polyreactivity (PSR sort gate)": "low polyreactivity"
  }
]

In the following, a different sequence is considered.
Lookup: Which polyreactivity (PSR sort gate) value is on record for `QVQLVESGGGLVQAGGSLRLSCAASGFTFRTYAMGWYRQAPGKEREYVAAINGRSGSTYADSVKGRFTISRDNAKNTVYLQMISLKPEDTAVYYCAARVRRGSTQAQFYYWGQGTQVTVSS` ?
Found: high polyreactivity

----------
# Protocol Details: yeast display, Sf9 membrane polyspecificity reagent, FACS + sequencing; frameworks hold sequencing errors
Property Measured: polyreactivity (PSR sort gate)

Before answering, review these 5 worked examples.
[
  {
    "Chain Sequence": "QVQLVESGGGLVQAGGSLRLSCAASGSTFFVNAMGWYRQAPGKERELVASITVSSGRTYYADSVKGRFTISRDNAKNTVYLQMNSLKPEDTAVYYCAARHLYWRREGYYWGQGYQVTVSS",
    "polyreactivity (PSR sort gate)": "high polyreactivity"
  },
  {
    "Chain Sequence": "QVQLVESGGCLVQAGGSLRLTCAASGIIFYAYAMGWYRQAPGKEREFVAAINNSGGRTYYADSVKGRFTISRDNAKNTVYLQMHSLKPEDTAVYYCAVYSYYRRTYRREMDYWGQGTQVTVSS",
    "polyreactivity (PSR sort gate)": "high polyreactivity"
  },
  {
    "Chain Sequence": "QVQLVESGGGLVQAGGSLRLSCDASGLTFGWNAMGWSRQAPGKERELVAALSYNGVSTHYADTVKGRFTISRDNAKNTVYLQMNSLKPEDTAVYYCAARALTWPYGGTAPRLYNYWGQGTQVTVSS",
    "polyreactivity (PSR sort gate)": "low polyreactivity"
  },
  {
    "Chain Sequence": "QYQLGESGGGLVQAGGSLRLSCAASGRIFTWNAMGWYRQAPGKERELVAAIRRGGGTYADSVKGRYTISRDNGKNTFYLQMHSLKPEDTAVYYCAATSGYYAMNYWGQGTQVTVSS",
    "polyreactivity (PSR sort gate)": "high polyreactivity"
  },
  {
    "Chain Sequence": "QLQLVESGRGLVQAGGSLRLSCAASGLIFGNYAKRSYRQPPGKESELVAAITSTGITYYADSVKGRFTISRDNAKNTVYLQMTSLKPEDTAVYYCAAASRFHPDRGGYWGQGTQVTVSS",
    "polyreactivity (PSR sort gate)": "low polyreactivity"
  }
]

Value sought for every listed sequence: polyreactivity (PSR sort gate).
1. QVQLVESGGGLVQAGGSLRLTCAASGRTFSYYTIGWYRQAPGKELELVADITGSGGSTYYADSVKGRFTISRDNAKNTVYLQINSLKPEDTAVYYCSAGWPYVYYTWYWTMDYWGQGTQVTVSS
2. QVQLVESGGGLVQAGGSLRLSCAASGFTFFKYAMGWYRQAPGKERELVAAISSSGGSTYYADSVKGRFTISRDNAKNTVYLQMNSLKPEDTAVYYCNRPAAVYFKLVTAYDYWGQGTQVTVSS
3. QVQLVESGGGLVQAGGSLRLSCAASGFTFGYYAMGWYRQAPGKERELVAAISRSGGRTYYADSVKGRFTISRDNAKNTVYLEMNSLKPEDTAVYYCNAVIHGWTLDYEYWGQGTQVTVSS
4. QVQLVESGGGLVQAGGSLRLSCAASGRTFYTNAMGWYRQAPGKERELVAAIDGGGTTYYADSVKGRFTISRDNAKNTVYLQMNSLKPEDTAVYYCNADVFGLKQTAFDYWGQGTQVTVSS
5. QVQLVESGGGLVQAGGSLRLSCAASGRIFVKYAMGWYRQAPGKERELVAGISRSVGSTYYADSVKGRFTISRDNAKNTVYLQMNSLKPEDTAVYYCATRQKRVGYYYWGQGTQVTVSS
6. QVQLVESGGGLVQAGGSLRVSCAASGFIFRRYAMGWYRQAPGKERELVAAIRTNSGSTYYADSVKGRFTISRDNAKNTVYLQMNSLKPEDTAVYYCATGQVYRTVSWLYNYWGQGTQVTVSS

Found:
high polyreactivity
high polyreactivity
high polyreactivity
low polyreactivity
high polyreactivity
high polyreactivity
